protein stability index listing for selected variants.
B1: EPB41L3 (parent)
chain: KKFLTLGSKFRYSGRTQAQTRRAS

- Variants of: B1
- protocol.notes: protein stability index of a GFP-peptide fusion (GPS, HEK-293T) (PSI 1-6); higher = more stable;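 note: lentivirally expressed fusions sorted by FACS into six bins by GFP to DsRed ratio, PSI derived from sequencing read proportions per bin multiplied by bin number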
- test.context: c terminus: a fixed tail appended
Response field accepts a number only; no unit should be typed.

Please review the following examples before continuing.
* K9Q | 1.79
* T16L | 2.52
* R21K | 3.75

// switching to the query variant
Request: Give its protein stability index value. Item: T5S
Result: 3.05
